For each record, write down the corresponding IC50.
System: MH60
Experiment: Cytotoxicity in mouse MH60 cells assessed as inhibition of recombinant human IL-6-induced growth incubated for 72 hrs by tetrazolium method
Type: functional, cell-based
Settings: MH60, 72 h
Provide only the numeric value, understood in µM.

Q. Consider the compound shown here: CCCCC1=C(C)C(=O)[C@@](C)(CN2c3ccccc3[C@]3(O)CCO[C@H]23)C1=O What is its recorded IC50?
A. 8

Q. Consider the compound shown here: Cc1c(-c2ccc(O)cc2)n(Cc2ccc(OCCN3CCCCCC3)cc2)c2ccc(O)cc12 [BAZEDOXIFENE] What is its recorded IC50?
A. 3.8

Q. Consider the compound shown here: CCCCC1=C(C)C(=O)[C@](C)(CN2c3ccccc3[C@]3(O)CCO[C@H]23)C1=O What is its recorded IC50?
A. 30

* * *

Test system: MDA-MB-435
Experiment: Cytotoxicity against human MDA-MB-435 cells assessed as reduction in cell growth incubated for 72 hrs by MTT assay
Format: functional, cell-based
Settings: MDA-MB-435, 72 h
Experimental Endpoint: pIC50
Quick note: pIC50 values are minus log10 of concentrations in mol/L.

Q. Lab request: please report pIC50 under test system MDA-MB-435 for O=C(NNc1nc2cc(F)ccc2n2cccc12)c1cnccn1
A. 6.40

From: ChEMBL document CHEMBL5338732
